Target: CIRBP (Homo sapiens)
Sequence (Q14011 whole entry): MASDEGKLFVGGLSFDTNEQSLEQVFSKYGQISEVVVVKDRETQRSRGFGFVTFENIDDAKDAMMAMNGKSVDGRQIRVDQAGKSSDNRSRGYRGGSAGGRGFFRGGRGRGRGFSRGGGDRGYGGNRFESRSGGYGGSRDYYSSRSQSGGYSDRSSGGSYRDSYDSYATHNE
value.type: Kd
Give the value; after it, write the unit.

Input: Give the measured Kd of Nc1ncnc2c1ncn2[C@@H]1O[C@H](COP(=O)(O)OP(=O)(O)OP(=O)(O)O)[C@@H](O)[C@H]1O [ATP] .
Output: 2900 µM
